The reported numbers originate from the supplement of paper PMC9170038.

- System: K4 kissing-loop RNA reporter;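 note: bound reporter read as fluorescence of individual clusters on recovered sequencing chips by microscopy, with normalized cluster intensities fitted with a binding model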
- EXPERIMENT: apparent KD of K4 kissing-loop reporter; higher = weaker reporter binding
- PARTICULARS: Eterna round: R107; input ligand: none
RECORDED ENDPOINT: apparent KD of K4 kissing-loop reporter (µM)

{"SEQUENCE INPUT": "GCAGUCAAUCGACCACGAAAGUGGAUGGAUACCAGCCCGAAACCGGGCCCUUGGCAGCCAGUGAUGUUGGAAGACUGCUUUAAAA [#SwitchBubble 14 #K4Late]", "NUMERIC READOUT": 0.548}
{"SEQUENCE INPUT": "GGGCAUGUUAAAGGAUAUAGCAGGUGAUACAAGAAAGUGAGUGAUGUUUAUGUAGAUGAUGAUAUGUUAGAAGGUUAACAAAACC [abcdefghijklm]", "NUMERIC READOUT": 0.62}
{"SEQUENCE INPUT": "AGCAGUGAUGUUGCUCAAUUUACAGGUGAUACCAGAGGUCAGUCUCUCCCUUGGCAGCACUUCAUACGAUGAUGUUUUAUCGGCC [theeternabot_sameState_KL_Theo_A_50]", "NUMERIC READOUT": 0.37}
{"SEQUENCE INPUT": "CGCGCGCGCUUGAGAGGGCGCGCGCGAAGUGAGGAUAUUUAGGGAGAAAGAAGGCACUAUAAAAUAUAGUGAUGUUAUAUAAGGG [SSFMNA.E]", "NUMERIC READOUT": 0.468}
{"SEQUENCE INPUT": "CGAGUGAUGUUCGUUCGUUUAUUUCGUUGACAGGAUAUGCGGAAACGCAGAAGGGUCACCUUUGAGUUAACGGAAUUUACGUUAU [Ex FMN A 27]", "NUMERIC READOUT": 0.587}
{"SEQUENCE INPUT": "GCGCGGCUCAGUGAUGUUGAGCCUCGGAAACGAGGACCGGUACGGCCGCCACUCGUCCGCGCAGCUGAGGCAAAAGCCUCGGCAA [Omei KL Tryp A SS B v1]", "NUMERIC READOUT": 0.319}
{"SEQUENCE INPUT": "GGAGAGGUCUUGUUUGGAUGUGUUUAAUGGCGAGGACCGGUACGGCCGCCACUCGGGUGAUGUUAGUGAUGUUGAUGUUGUGAUG ['oo'mullin]", "NUMERIC READOUT": 0.125}
{"SEQUENCE INPUT": "CCGCCGGUCGGAAGGAGCGCACGCCAGAGUGAUGUUCUGGCGCGGGCACUUUAUGCCCGCGUGCAGGUAGGUCGCCGAUUCUGGC [Mabema]", "NUMERIC READOUT": 0.445}
{"SEQUENCE INPUT": "AGUAUUGAGUCGGCCGCCACUGGUUUAAUGAGUGUCAAUUCUGGAUCAAAGUGAUGUUUUGGAGCUAGGACCGGGACCAUUGUUA [#07 K4 Tryptophan B Exclusion]", "NUMERIC READOUT": 0.433}
{"SEQUENCE INPUT": "GGUGCUGGCCAGUGAUGUUGGCGAAUACUGAAGGAUAUGAUAGGCGUCAGAAGGUCAAGAGUAAUAUCUAGAAUGAAUAGUGAUA [theeternabot_sameState_KL_FMN_A_38]", "NUMERIC READOUT": 0.329}
{"SEQUENCE INPUT": "GUGCAAAGCACCGGCACGAGCAGCCUAAAGGAGGAUAUGACGAAAGUCAGAAGGUCUAGUGAUGUUAGGCCUUGCUUGAGUCGAA [Omei KL FMN A Exc B v3]", "NUMERIC READOUT": 0.402}
{"SEQUENCE INPUT": "UACCUGCUGUCAGGAUAUGAGUGCAGUGAUGUUGCACUCAACGUAACCAUCUUGAAAUACAAACACUCAGAAGGGACGCACGAAG [Isattema]", "NUMERIC READOUT": 0.14}
{"SEQUENCE INPUT": "GUAUCGCUAGGAGGAUAUUUCAAUUCGCCUAUAAAAGGUGAUACGGAGUGAUGUUCCGAUUUACGGAAAGAAGGCCUAGUGAUAC [FMN B 9]", "NUMERIC READOUT": 0.282}
{"SEQUENCE INPUT": "AACCACUCGUUACAUCACUAUCGAGUGGAACGAGGACCGGUACGGCCGCCACUCGAUUAGAUGCAGUGAUGUUGCAUCUUAGAAU [KL-SSTryp-A (BrourdMod)3 #dotplot2 strengthened]", "NUMERIC READOUT": 0.165}
